measurement_notes: Metabolic stability in rat liver microsomes assessed as compound metabolized at 5 uM measured after 15 mins
Format: ADME
study_conditions: read-out: Drug metabolism
endpoint: metabolised at […], 5 µM (%)

1. FC(F)(F)c1c(CN2CCC(F)(c3ccccc3)CC2)ccn2c(CC3CC3)nnc12 : 78

A = COC1(c2ccccc2)CCN(Cc2ccn3c(CC4CC4)nnc3c2C(F)(F)F)CC1
B = CCCCn1ccc(N2CCC(c3ccccc3)CC2)c(Cl)c1=O
Could you tell me which of A and B has the lower metabolised at […], 5 µM reading? Let me know the label of the one you choose.
B
(B: 53%, A: 98%)

====

measurement_notes: Metabolic stability in human liver microsomes assessed as compound metabolized at 5 uM measured after 15 mins
Assay type: ADME
study_conditions: read-out: Drug metabolism
endpoint: metabolised at […], 5 µM (%)

Solved cases (2 shown):
1) FC(F)(F)c1c(CN2CCC(c3ccccc3Cl)CC2)ccn2c(CC3CC3)nnc12 : 13
2) FC(F)(F)c1c(CN2CCC(c3ccccc3)(C(F)(F)F)CC2)ccn2c(CC3CC3)nnc12 : 35

1 = Fc1ccc([C@H]2CC[C@H](NCc3ccn4c(CC5CC5)nnc4c3C(F)(F)F)CC2)c(F)c1
2 = Fc1ccccc1C1CCN(Cc2ccn3c(CC4CC4)nnc3c2C(F)(F)F)CC1
3 = FC(F)(F)c1c(CN2CCCC(c3ccccc3)C2)ccn2c(CC3CC3)nnc12 (stereo not drawn)
Number of compounds to sort: 3. Sort criterion: metabolised at […], 5 µM, ascending. A ranking is expressed here by listing the labels in the requested order.
2, 1, 3
(2: 8%, 1: 33%, 3: 51%)

A = Fc1ccc(OC2CCN(Cc3ccn4c(CC5CC5)nnc4c3C(F)(F)F)CC2)c(F)c1
B = Fc1cccc(F)c1C1CCN(Cc2ccn3c(CC4CC4)nnc3c2C(F)(F)F)CC1
Lab notebook, comparison: A versus B , higher metabolised at […], 5 µM goes to which? Provide the label of your selected option as the answer.
A
(A: 25%, B: 5%)

P = FC(F)(F)c1c(CN2CCC(F)(c3ccccc3)CC2)ccn2c(CC3CC3)nnc12
Q = Fc1ccc(C2CCN(Cc3ccn4c(CC5CC5)nnc4c3C(F)(F)F)CC2)c(F)c1
R = Fc1ccc(N2CCCN(Cc3ccn4c(CC5CC5)nnc4c3C(F)(F)F)CC2)c(F)c1
S = Fc1cccc(F)c1N1CCN(Cc2ccn3c(CC4CC4)nnc3c2C(F)(F)F)CC1
T = FC(F)(F)c1c(CN2CCN(c3ccc(Cl)cc3Cl)CC2)ccn2c(CC3CC3)nnc12
// sort entries: metabolised at […], 5 µM, high to low Give the labels in the order requested.
R, S, P, Q, T

I = CCCCn1ccc(N2CCC(c3ccccc3)CC2)c(Cl)c1=O
II = Fc1ccc(N2CCN(Cc3ccn4c(CC5CC5)nnc4c3C(F)(F)F)CC2)c(F)c1
Consider entries I and II . Which has the numerically lower metabolised at […], 5 µM? # reply format: chosen label
II
(II: 7%, I: 23%)

====

measurement_notes: Apparent permeability across apical to basolateral side over basolateral to apical side in pig LLC-PK1 cells at 1 uM measured after 120 mins
Type: ADME, cell-based, Sus scrofa
endpoint: Papp at 2 h, 1 µM (×10⁻⁶ cm/s)

a = FC(F)(F)c1c(N2CCC(c3ccccc3)CC2)ccn2c(CC3CC3)nnc12
b = Fc1ccc(N2CCN(Cc3ccn4c(CC5CC5)nnc4c3C(F)(F)F)CC2)c(F)c1
Which of the two items, a and b , has the greater recorded Papp at 2 h, 1 µM? Please reply using the label of the selected record.
b

====

measurement_notes: Tmax in Beagle dog at 1 mg/kg, iv or 5 mg/kg, po
Assay type: ADME, organism-based, Canis lupus familiaris
study_conditions: in vivo
endpoint: Tmax (min)

1) CCCCn1ccc(N2CCC(c3ccccc3)CC2)c(Cl)c1=O : 30
2) FC(F)(F)c1c(N2CCC(c3ccccc3)CC2)ccn2c(CC3CC3)nnc12 : 30
3) Fc1ccc(N2CCN(Cc3ccn4c(CC5CC5)nnc4c3C(F)(F)F)CC2)c(F)c1 : 30

====

measurement_notes: Cmax in Sprague-Dawley rat at […], iv or 10 mg/kg, po
Assay type: ADME, organism-based
study_conditions: in vivo
endpoint: Cmax (ng/mL)
Number only, in ng/mL; omit the unit.

What Cmax value was documented for this compound, "Fc1ccc(N2CCN(Cc3ccn4c(CC5CC5)nnc4c3C(F)(F)F)CC2)c(F)c1" ?
980

====

measurement_notes: Dissociation constant, pKa of the compound
Assay type: physicochemical
endpoint: pKa
Keep it simple and answer with nothing but the number.

Can you look up the measured pKa of "Fc1ccc(N2CCN(Cc3ccn4c(CC5CC5)nnc4c3C(F)(F)F)CC2)c(F)c1" for me?
5

====

measurement_notes: Tmax in Sprague-Dawley rat at […], iv or 10 mg/kg, po
Assay type: ADME, organism-based
study_conditions: in vivo
endpoint: Tmax (h)

I = CCCCn1ccc(N2CCC(c3ccccc3)CC2)c(Cl)c1=O [JNJ-40411813]
II = Fc1ccc(N2CCN(Cc3ccn4c(CC5CC5)nnc4c3C(F)(F)F)CC2)c(F)c1
Returns: the argument ( I or II ) having the larger Tmax. Response format: the label of the selected entry.
II
(II: 5 h, I: 0.5 h)

====

measurement_notes: Elimination half life in Sprague-Dawley rat at […], iv or 10 mg/kg, po
Assay type: ADME, organism-based
study_conditions: in vivo, read-out: beta t1/2 (converted)
endpoint: half-life (min)
Give the value in min but do not write min after it.

For "Fc1ccc(N2CCN(Cc3ccn4c(CC5CC5)nnc4c3C(F)(F)F)CC2)c(F)c1" , what is its reported half-life?
180

====

measurement_notes: AUC (0 to infinity) in Beagle dog at 1 mg/kg, iv or 5 mg/kg, po
Assay type: ADME, organism-based, Canis lupus familiaris
study_conditions: in vivo
Recorded AUC(0-inf) by entry

1. Fc1ccc(N2CCN(Cc3ccn4c(CC5CC5)nnc4c3C(F)(F)F)CC2)c(F)c1 : 3960 to 9860 ng·h/mL

Need AUC(0-inf), item "FC(F)(F)c1c(N2CCC(c3ccccc3)CC2)ccn2c(CC3CC3)nnc12"
531 to 957 ng·h/mL

====

measurement_notes: Metabolic stability in rat liver microsomes assessed as compound metabolized at 5 uM measured after 15 mins
Assay type: ADME
study_conditions: read-out: Drug metabolism
endpoint: metabolised at […], 5 µM (%)

Record excerpt, results attached:
1) FC(F)(F)c1c(CN2CCCC(c3ccccc3)C2)ccn2c(CC3CC3)nnc12 (stereo not given) : 98
2) FC(F)(F)c1c(N2CCC(c3ccccc3)CC2)ccn2c(CC3CC3)nnc12 : 25

A = CC1(c2ccccc2)CCCN(Cc2ccn3c(CC4CC4)nnc3c2C(F)(F)F)C1 (stereo not given)
B = Fc1ccc(C2CCN(Cc3ccn4c(CC5CC5)nnc4c3C(F)(F)F)CC2)c(F)c1
C = Fc1ccc([C@H]2CC[C@H](NCc3ccn4c(CC5CC5)nnc4c3C(F)(F)F)CC2)c(F)c1
Order the entries by their reported metabolised at […], 5 µM, beginning at the minimum. Form entry: labels listed in requested order.
B, C, A

====

measurement_notes: AUC (0 to infinity) in Sprague-Dawley rat at […], iv or 10 mg/kg, po
Format: ADME, organism-based
study_conditions: in vivo
endpoint: AUC(0-inf) (ng·h/mL)
Give just the numeric value; ng·h/mL need not be written.

Would you mind telling me what AUC(0-inf) value was observed for "Fc1ccc(N2CCN(Cc3ccn4c(CC5CC5)nnc4c3C(F)(F)F)CC2)c(F)c1" ?
11300

====

measurement_notes: Lipophilicity, log P of the compound
Type: physicochemical
study_conditions: octanol/water
endpoint: logP

1. CCCCn1ccc(N2CCC(c3ccccc3)CC2)c(Cl)c1=O [JNJ-40411813] : 4.6
2. FC(F)(F)c1c(N2CCC(c3ccccc3)CC2)ccn2c(CC3CC3)nnc12 : 4.4
3. Fc1ccc(N2CCN(Cc3ccn4c(CC5CC5)nnc4c3C(F)(F)F)CC2)c(F)c1 : 4.2

====

measurement_notes: Clearance in Sprague-Dawley rat at […], iv or 10 mg/kg, po
Type: ADME, organism-based
study_conditions: in vivo
endpoint: clearance (mL/min/kg)
Just the number in mL/min/kg, nothing appended.

# clearance lookup, item "Fc1ccc(N2CCN(Cc3ccn4c(CC5CC5)nnc4c3C(F)(F)F)CC2)c(F)c1"
16

====

measurement_notes: Metabolic stability in rat liver microsomes assessed as compound metabolized at 5 uM measured after 15 mins
Assay type: ADME
study_conditions: read-out: Drug metabolism
endpoint: metabolised at […], 5 µM (%)

1) Fc1cccc(F)c1N1CCN(Cc2ccn3c(CC4CC4)nnc3c2C(F)(F)F)CC1 : 99
2) FC(F)(F)c1c(CN2CCC(c3ccccc3)(C(F)(F)F)CC2)ccn2c(CC3CC3)nnc12 : 98

a = Fc1ccc(N2CCN(Cc3ccn4c(CC5CC5)nnc4c3C(F)(F)F)CC2)c(F)c1
b = Fc1ccc(COC2CCN(Cc3ccn4c(CC5CC5)nnc4c3C(F)(F)F)CC2)c(F)c1
c = FC(F)(F)c1c(CN2CCN(c3ccc(Cl)cc3Cl)CC2)ccn2c(CC3CC3)nnc12
Ascending by metabolised at […], 5 µM, please: list the compounds accordingly. Please write the labels in the order that was asked for.
c, a, b
(c: 9%, a: 29%, b: 96%)
